Biological target: PKC-epsilon (Homo sapiens)
Construct: purchased Calbiochem
Sequence (Q02156 1-737): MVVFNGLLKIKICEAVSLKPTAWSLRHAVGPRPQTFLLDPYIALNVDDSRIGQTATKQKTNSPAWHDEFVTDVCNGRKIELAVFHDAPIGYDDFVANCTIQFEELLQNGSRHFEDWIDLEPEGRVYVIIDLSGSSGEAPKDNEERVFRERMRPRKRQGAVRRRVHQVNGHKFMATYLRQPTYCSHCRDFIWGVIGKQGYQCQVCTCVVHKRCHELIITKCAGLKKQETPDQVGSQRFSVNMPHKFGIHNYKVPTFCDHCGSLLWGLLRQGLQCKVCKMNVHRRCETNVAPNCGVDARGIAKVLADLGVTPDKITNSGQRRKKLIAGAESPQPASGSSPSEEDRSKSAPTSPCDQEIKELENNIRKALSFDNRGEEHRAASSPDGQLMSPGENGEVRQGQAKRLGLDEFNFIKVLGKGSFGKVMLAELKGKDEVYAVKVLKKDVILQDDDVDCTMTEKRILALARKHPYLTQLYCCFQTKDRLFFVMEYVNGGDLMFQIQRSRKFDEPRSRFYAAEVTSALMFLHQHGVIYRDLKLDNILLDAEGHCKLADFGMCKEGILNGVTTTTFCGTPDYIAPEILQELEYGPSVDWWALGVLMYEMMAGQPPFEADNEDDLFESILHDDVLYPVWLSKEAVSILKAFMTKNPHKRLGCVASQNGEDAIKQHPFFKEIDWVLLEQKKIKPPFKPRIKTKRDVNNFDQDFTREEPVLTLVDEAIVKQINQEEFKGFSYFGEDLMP
Experiment: In vitro kinase assay: peptide phosphorylation by PKC-epsilon
Format: biochemical
Conditions: peptide concentration 1 uM
Entries and their phosphorylation by PKC epsilon values follow.

Record excerpt, results attached:
>  <Substance>
135 (KKKFRTPSFLKKSKK) [compound 135]

>  <Recorded result>
27

$$$$
>  <Substance>
162 (KKKFSFKKPFKLSGLSFKRN) [compound 162]

>  <Recorded result>
19

$$$$
>  <Substance>
138 (EYLERRASRRRAV) [compound 138]

>  <Recorded result>
27

$$$$
>  <Substance>
134 (RSRSRSRSKSKDKRKSRKRS) [compound 134]

>  <Recorded result>
32

$$$$
>  <Substance>
144 (LSSMFGTLPRKSRKGSVRKQ) [compound 144]

>  <Recorded result>
24

$$$$

[ask] May I ask what phosphorylation by PKC epsilon has been recorded for 119 (KKRFSFKKSFKLSGFSFKKN) [compound 119] ?
[reply] 81

[ask] Repeat for the following substance: 166 (MAQIERGEARIQRRISIKKA) [compound 166]
[reply] 10

[ask] Repeat for the following substance: 114 (KKKKRASFKRKSSKKG) [compound 114]
[reply] 100

[ask] Repeat for the following substance: 151 (PQNSLKASNRKKKRTSFKRK) [compound 151]
[reply] 24

[ask] Repeat for the following substance: 152 (DLIEGRKGAQIVKRASLKRG) [compound 152]
[reply] 25

[ask] Repeat for the following substance: 153 (TYLLPDKSRQGKRKTSIKRD) [compound 153]
[reply] 24

[ask] Repeat for the following substance: 160 (PFEVVWYKDKRQLRSSKKYK) [compound 160]
[reply] 13

[ask] Repeat for the following substance: 128 (QQVDRERPHVRRRRGTFKRS) [compound 128]
[reply] 32

[ask] Repeat for the following substance: 133 (LEKRGMLGKRPRRKSSRRKK) [compound 133]
[reply] 31

[ask] Repeat for the following substance: 116 (EEGTFRSSIRRLSTRRR) [compound 116]
[reply] 92

====

Entries and their phosphorylation by PKC zeta values follow.
Target: PKC-zeta (Homo sapiens)
Construct: purchased Calbiochem
Sequence (Q05513 1-592): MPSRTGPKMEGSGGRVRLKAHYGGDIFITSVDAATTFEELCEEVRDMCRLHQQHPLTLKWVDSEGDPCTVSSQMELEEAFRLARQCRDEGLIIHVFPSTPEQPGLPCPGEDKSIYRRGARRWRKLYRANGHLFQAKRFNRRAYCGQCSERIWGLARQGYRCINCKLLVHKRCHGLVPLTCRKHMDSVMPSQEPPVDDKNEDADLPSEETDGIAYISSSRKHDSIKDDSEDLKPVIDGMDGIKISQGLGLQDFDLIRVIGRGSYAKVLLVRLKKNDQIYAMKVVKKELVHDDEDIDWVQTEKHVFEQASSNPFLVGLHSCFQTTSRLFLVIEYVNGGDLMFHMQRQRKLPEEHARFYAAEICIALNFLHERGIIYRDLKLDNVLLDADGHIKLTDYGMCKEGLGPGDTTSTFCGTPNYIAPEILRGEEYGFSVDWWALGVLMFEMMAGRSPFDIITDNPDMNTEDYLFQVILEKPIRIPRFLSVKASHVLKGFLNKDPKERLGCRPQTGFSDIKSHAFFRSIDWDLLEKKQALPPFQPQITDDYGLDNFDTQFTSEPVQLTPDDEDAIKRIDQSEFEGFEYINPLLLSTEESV
Experiment: In vitro kinase assay: peptide phosphorylation by PKC-zeta
Format: biochemical
Conditions: peptide concentration 10 uM
Form: value (number only, do not type unit).

Record excerpt, results attached:
>  <Substance>
130 (EYLERRASRRRAV) [compound 130]

>  <Study target>
PKC-zeta (Homo sapiens)

>  <Recorded result>
39

$$$$
>  <Substance>
128 (QQVDRERPHVRRRRGTFKRS) [compound 128]

>  <Study target>
PKC-zeta (Homo sapiens)

>  <Recorded result>
9

$$$$
>  <Substance>
134 (RSRSRSRSKSKDKRKSRKRS) [compound 134]

>  <Study target>
PKC-zeta (Homo sapiens)

>  <Recorded result>
5

$$$$
>  <Substance>
123 (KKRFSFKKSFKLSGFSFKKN) [compound 123]

>  <Study target>
PKC-zeta (Homo sapiens)

>  <Recorded result>
20

$$$$
>  <Substance>
125 (PLKEKKRERKTSSKSSVRKR) [compound 125]

>  <Study target>
PKC-zeta (Homo sapiens)

>  <Recorded result>
12

$$$$
>  <Substance>
117 (NRKKKRTSFKRKA) [compound 117]

>  <Study target>
PKC-zeta (Homo sapiens)

>  <Recorded result>
11

$$$$

Okay, now this substance:
[ask] May I ask what phosphorylation by PKC zeta has been recorded for 152 (DLIEGRKGAQIVKRASLKRG) [compound 152] ?
[reply] 9

====

Target: PKC-alpha (Homo sapiens)
Construct: purchased Calbiochem
Assay: In vitro kinase assay: peptide phosphorylation by PKC-alpha
Assay type: biochemical
Conditions: normalized to best substrate
Source text: Catalytically active preparations of the kinases of interest were either purchased or prepared. […] The conditions of the kinase assay and the amount of active kinase used varied with the kinase and with the accuracy needed. […] The choice of kinase buffer depended on the kinase being analyzed. […]
Give 1 when the value for PKC alpha phosphorylation is at least 40%. Give 0 when it is less.

>  <Substance>
78 (KFARKSTRRSIRLPE) [compound 78]

>  <Cat>
1

$$$$
>  <Substance>
112 (KRPGKKGSNKRPGKR) [compound 112]

>  <Cat>
0

$$$$
>  <Substance>
81 (KRERKTSSKSSVRKRR) [compound 81]

>  <Cat>
1

$$$$
>  <Substance>
105 (ALRRPSLRREADD) [compound 105]

>  <Cat>
0

$$$$
>  <Substance>
89 (EYLERRASRRRAV) [compound 89]

>  <Cat>
0

$$$$

[ask] Is PKC alpha phosphorylation for 92 (DGQKRKKSLRKKLD) [compound 92] at or above 40%?
[reply] 0

[ask] Repeat for the following substance: 98 (AGPLRKSSLKKGGRL) [compound 98]
[reply] 0

[ask] Repeat for the following substance: 85 (RFARKGSLRQKNV) [compound 85]
[reply] 1

[ask] Repeat for the following substance: 113 (GENVLKKSMKSRVKG) [compound 113]
[reply] 0

[ask] Repeat for the following substance: 76 (HVRRRRGTFKRSKLRARD) [compound 76]
[reply] 1

====

Target: PKC-delta (Homo sapiens)
Construct: purchased Calbiochem
Sequence (Q05655 whole entry): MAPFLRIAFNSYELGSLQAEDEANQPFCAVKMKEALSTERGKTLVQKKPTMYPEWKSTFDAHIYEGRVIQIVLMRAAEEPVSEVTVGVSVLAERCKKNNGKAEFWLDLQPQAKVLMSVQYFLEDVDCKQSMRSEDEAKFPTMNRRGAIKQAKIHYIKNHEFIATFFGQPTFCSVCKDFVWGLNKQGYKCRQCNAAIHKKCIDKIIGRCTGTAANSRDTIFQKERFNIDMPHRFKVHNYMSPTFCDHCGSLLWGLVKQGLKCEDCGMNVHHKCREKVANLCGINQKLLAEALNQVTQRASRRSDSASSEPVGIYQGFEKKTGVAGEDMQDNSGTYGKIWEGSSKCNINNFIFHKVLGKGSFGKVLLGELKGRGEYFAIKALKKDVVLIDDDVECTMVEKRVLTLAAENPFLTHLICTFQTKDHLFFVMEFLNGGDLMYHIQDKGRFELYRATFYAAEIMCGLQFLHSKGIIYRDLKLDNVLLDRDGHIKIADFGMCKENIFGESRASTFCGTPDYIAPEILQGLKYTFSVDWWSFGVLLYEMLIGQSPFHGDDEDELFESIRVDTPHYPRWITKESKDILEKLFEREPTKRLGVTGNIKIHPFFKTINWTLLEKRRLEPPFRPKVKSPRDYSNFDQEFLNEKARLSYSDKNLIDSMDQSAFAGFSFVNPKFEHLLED
Experiment: In vitro kinase assay: peptide phosphorylation by PKC-delta
Assay type: biochemical
Conditions: peptide concentration of 10 nM; percentage of phosphorylation of the best validating peptide substrate
Field: label. Allowed values: t (Measured in vitro phosphorylation by PKC-delta < 3%) or f (Measured in vitro phosphorylation by PKC-delta >= 3%).

>  <Substance>
51 (DLLGKKVSTKTLSEDD) [compound 51]

>  <Cat>
t

$$$$
>  <Substance>
75 (EEAEHKATKARLADK) [compound 75]

>  <Cat>
t

$$$$
>  <Substance>
11 (KKKFRTPSFLKKSKK) [compound 11]

>  <Cat>
f

$$$$
>  <Substance>
1 (HVRRRRGTFKRSKLRARD) [compound 1]

>  <Cat>
f

$$$$
>  <Substance>
68 (RGEGHKPSIAHRDFK) [compound 68]

>  <Cat>
t

$$$$

Field: next substance
[ask] Please indicate whether the reported Measured in vitro phosphorylation by PKC-delta of 2 (KKKKRASFKRKSSKKG) [compound 2] is strictly below 3%.
[reply] f

Cited source: patent US20050064507A1
